What MIC was measured for each of the following?
- Test system: MRSA strain EMRSA-15
- procedure.details: CLSI broth microplate assay, MIC
- Format: cell-based
- run.parameters: Staphylococcus aureus, EMRSA-15, Mueller-Hinton broth, 37° C., read-out: Minimum inhibitory concentration (MIC mg/L) EMRSA-15
Numbers only, in mg/L.

Some molecules with recorded MIC:
Let me know recorded MIC for "COc1cc2c(cc1OCCCC(=O)Nc1cn(C)c(C(=O)Nc3ccc(OCCN4CCOCC4)cc3)n1)N=C[C@@H]1CCCN1C2=O" , thanks.
0.25

Let me know recorded MIC for "COc1cc2c(cc1OCCCC(=O)Nc1ccc(-c3cc(C(=O)Nc4ccc(OCCN5CCOCC5)cc4)n(C)c3)cc1)N=C[C@@H]1CCCN1C2=O" , thanks.
2

Let me know recorded MIC for "COc1cc2c(cc1OCCCC(=O)Nc1cc(C(=O)Nc3ccc(N4CCOCC4)cc3)n(C)c1)N=C[C@@H]1CCCN1C2=O" , thanks.
0.5

Let me know recorded MIC for "COc1cc2c(cc1OCCCC(=O)Nc1cc(C(=O)Nc3ccc4sccc4c3)n(C)c1)N=C[C@@H]1CCCN1C2=O" , thanks.
0.03

Moving on to another molecule below.
Let me know recorded MIC for "COc1cc2c(cc1OCCCC(=O)Nc1cc(C(=O)Nc3ccc4occc4c3)n(C)c1)N=C[C@@H]1CCCN1C2=O" , thanks.
0.06

----------
- Test system: MRSA strain BB568
- procedure.details: CLSI broth microplate assay, MIC
- Format: cell-based
- run.parameters: Staphylococcus aureus, read-out: Minimum inhibitory concentration (MIC mg/L) BB568
What MIC was measured for each of the following?
Answers are plain numbers, in mg/L.

Some compounds with recorded MIC:
Let me know recorded MIC for COC(=O)c1cc2cc(NC(=O)c3cc(NC(=O)CCCOc4cc5c(cc4OC)C(=O)N4CCC[C@H]4C=N5)cn3C)ccc2s1 [Compound 28] , thanks.
0.125

Let me know recorded MIC for COc1cc2c(cc1OCCCC(=O)Nc1cn(C)c(C(=O)Nc3ccc(N4CCOCC4)cc3)n1)N=C[C@@H]1CCCN1C2=O [Compound 37] , thanks.
0.5

Let me know recorded MIC for COc1cc2c(cc1OCCCC(=O)Nc1ccc(-c3cc(C(=O)NCc4ccc(OCCN5CCOCC5)cc4)n(C)c3)cc1)N=C[C@@H]1CCCN1C2=O [Compound 52] , thanks.
4

Let me know recorded MIC for COc1cc2c(cc1OCCCC(=O)Nc1cn(C)c(C(=O)Nc3ccc(N4CCOCC4)nc3)n1)N=C[C@@H]1CCCN1C2=O [Compound 40] , thanks.
0.5

Let me know recorded MIC for COc1cc2c(cc1OCCCC(=O)Nc1cc(C(=O)Nc3ccc(N4CCOCC4)nc3)n(C)c1)N=C[C@@H]1CCCN1C2=O [Compound 31] , thanks.
4

Let me know recorded MIC for COc1cc2c(cc1OCCCC(=O)Nc1ccc(-c3cc(C(=O)Nc4ccc(N5CCOCC5)nc4)n(C)c3)cc1)N=C[C@@H]1CCCN1C2=O [Compound 53] , thanks.
4

Let me know recorded MIC for COc1cc2c(cc1OCCCC(=O)Nc1ccc(-c3cc(C(=O)Nc4ccc(N5CCOCC5)cc4)n(C)c3)cc1)N=C[C@@H]1CCCN1C2=O [Compound 49] , thanks.
2

Let me know recorded MIC for COC(=O)c1cc(NC(=O)c2cc(NC(=O)c3cc(NC(=O)c4cc(NC(=O)c5cc(-c6ccc(NC(=O)CCCOc7cc8c(cc7OC)C(=O)N7CCC[C@H]7C=N8)cc6)cn5C)cn4C)cn3C)cn2C)cn1C [Compound 59] , thanks.
16

Let me know recorded MIC for COC(=O)c1cc(-c2ccc(NC(=O)c3cc(-c4ccc(NC(=O)CCCOc5cc6c(cc5OC)C(=O)N5CCC[C@H]5C=N6)cc4)co3)cc2)cn1C [Compound 56] , thanks.
0.5

Let me know recorded MIC for COC(=O)c1cc2cc(NC(=O)c3nc(NC(=O)CCCOc4cc5c(cc4OC)C(=O)N4CCC[C@H]4C=N5)cn3C)ccc2s1 [Compound 35] , thanks.
0.06

Moving on to another compound below.
Let me know recorded MIC for COc1cc2c(cc1OCCCC(=O)Nc1cc(C(=O)Nc3ccc4occc4c3)n(C)c1)N=C[C@@H]1CCCN1C2=O [Compound 26] , thanks.
0.125
